Below: a set of entries, each annotated with reported GI50.
system: COLO 205; test: NCI tumour cell line growth inhibition, 48 h
Calls of active or inactive are those of the source. Rule as the data show it: active = GI50 up to about 1.1 µM and inactive = higher. Positions of bridges follow the written chain, without caps; N, C: chain ends. Non-standard residues stand in square brackets, D forms with d. Residues, ends and D or L forms follow the SMILES beside them. *: point of attachment. PhAc = O=C(Cc1ccccc1)*

Example compounds with recorded GI50:
Exam item: Hi! What's the reported GI50 for CN1CC2(CCCCC2)C(O)C12C=CCCC2 (stereo not given) on COLO 205?
Marked response: > 100 µM (inactive)

Exam item: Identify the measured GI50 of OC(c1ccccc1)(c1ccccc1)c1ccccn1 for COLO 205.
Marked response: > 100 µM (inactive)

Continuing:
Exam item: API: value(readout=GI50, system=COLO 205) for record O=C(Nc1sccc1S(=O)(=O)c1ccccc1)c1cccnc1
Marked response: 3.88 µM (inactive)

Exam item: GET /values?readout=GI50&system=COLO 205&item= Nc1nc(Nc2ccccc2)sc1C(=O)c1ccc(Cl)cc1
Marked response: > 100 µM (inactive)

Exam item: Write down the reported GI50 of CC(C)(C)n1c(=O)[nH]n(C2NN=Cc3cccc4cccc2c34)c1=O (stereo not given) , test system: COLO 205.
Marked response: 30 µM (inactive)

Exam item: // fetch COLO 205 GI50 for CC1CC(C)CN(S(=O)(=O)c2cc(Cl)c(Oc3ccc([N+](=O)[O-])cc3Cl)c(Cl)c2)C1 (stereo not given)
Marked response: > 100 µM (inactive)

Exam item: Form entry - test system: COLO 205; read-out: GI50; compound: CC(C)(C)N(Cc1ccccc1)C(=O)/C=C\[S+]([O-])c1ccccc1 (stereo not given)
Marked response: 4.72 µM (inactive)

Exam item: Query GI50 on COLO 205 for CN(C(=O)c1ccc(Cl)cc1)C(=S)N1CCN(c2ccccc2)CC1
Marked response: 50.9 µM (inactive)

Exam item: Kindly state the measured GI50 obtained for COC(=O)c1c(C(=O)OC)c(-c2ccccc2)n(-c2ccccc2)c(=O)c1-c1ccccc1 with COLO 205.
Marked response: > 100 µM (inactive)

Exam item: GET /values?readout=GI50&system=COLO 205&item= O=C(Cc1ccccc1)N[C@@H]1COC(=O)[C@@H]2CCCN2C(=O)[C@@H]2CCCN2C1=O (PhAc-[dS]-Pro-Pro; ester 1-C)
Marked response: > 100 µM (inactive)

###

system: OVCAR-3; assay: NCI tumour cell line growth inhibition, 48 h
The source made the active and inactive calls. Cut-off read from the data, not from the text of the source: active = GI50 up to about 1.1 µM and inactive = higher.
Pick from 1 = active, -1 = inactive when you respond.

Exam item: For CCn1c(=O)c2nc(SC)sc2n(-c2ccccc2)c1=S , what call appears in the results of this test?
Marked response: -1

Exam item: Tell me the assay call for O=C(CN1CCOCC1)c1ccc2c(c1)oc(=O)n2CCN1CCOCC1 please.
Marked response: -1

Others:
Exam item: Outcome logged for CC(=O)c1cccn1/C=C(\OC(=O)OC(C)(C)C)c1ccc[nH]1 in this assay:
Marked response: -1

Exam item: // return assay outcome for Oc1cccc2ccc(Br)nc12
Marked response: -1

Exam item: Each molecule tested received a call. Report the one for COc1ccc2nc(-c3ccc(OC(=O)N(C)C)cc3)cn2c1 .
Marked response: -1

Exam item: What call does the record list for CCc1cc(=O)n(/C(C)=C/c2ccccc2)n1C ?
Marked response: -1

Exam item: What call does the record list for O=C(Nc1sccc1S(=O)(=O)c1ccccc1)c1cccnc1 ?
Marked response: -1

Exam item: For CC(=O)c1ccc(Nc2c3ccccc3nc3occc23)cc1 , what call appears in the results of this test?
Marked response: 1

Source of measurements: ChEMBL document CHEMBL1201862
